Listing of entries alongside the reported plant injury at 125 g/ha.
tested on: Brassica napus (BRSNN, rape); assay: Test 1B glasshouse assay for herbicidal activity, pre-emergence; format: in vivo; details: 480 h, 125 g/ha, 20 DAA, read-out: percentage phytotoxicity BRSNN
quantity_measured: plant injury at 125 g/ha (%)

compound	target_or_test_system	quantity_measured	experimental_value
CC#Cc1cc(C)c(C2C(=O)CC(CC3CCOCC3)CC2=O)c(C)c1 (stereo not shown)	Brassica napus (BRSNN, rape)	plant injury at 125 g/ha	80
CC#Cc1cc(C)c(C2=C(OC(C)=O)CC(c3ccccn3)CC2=O)c(C)c1 (stereo not shown)	Brassica napus (BRSNN, rape)	plant injury at 125 g/ha	80
Cc1cc(C#CCl)cc(C)c1C1C(=O)C2CCC(C2)C1=O (stereo not shown)	Brassica napus (BRSNN, rape)	plant injury at 125 g/ha	70
CC#Cc1cc(C)c(C2C(=O)C3CCC(C3)C2=O)c(OC)c1 (stereo not shown)	Brassica napus (BRSNN, rape)	plant injury at 125 g/ha	0

###

system: Alopecurus myosuroides (ALOMY); test: Test 1B glasshouse assay for herbicidal activity, post-emergence; format: in vivo; conditions: 360 h, 60 g/ha application rate

molecule	scale_unit	pest or weed control at 60 g/ha
CC#Cc1ccc(C2C(=O)C(C)(C)OC(C)(C)C2=O)c(C)c1 [Compound A-1]	%	80
CC#Cc1cc(C)c(C2C(=O)C3CCC(C3)C2=O)c(C)c1 (stereo not drawn) [Compound A-5]	%	80
Cc1cc(C#CCl)cc(C)c1C1C(=O)C2CCC(C2)C1=O (stereo not drawn) [Compound A-6]	%	50
CC#Cc1ccc(C2C(=O)C3CCC(C3)C2=O)c(C)c1 (single isomer, unassigned) [Compound A-2]	%	90
CCc1cc(C)cc(CC)c1C1C(=O)C2CCC(C2)C1=O (stereo not drawn) [Compound X-10, reference compound]	%	80
Cc1cc(C)c(C2C(=O)C3CCC(C3)C2=O)c(C)c1 (stereo not drawn) [Compound X-9, reference compound]	%	20

###

Listing of entries alongside the reported pest or weed control at 250 g/ha.
system: Amaranthus retroflexus (AMARE); assay: Test 1A glasshouse assay for herbicidal activity, post-emergence; type: in vivo; settings: 312 h, 250 g/ha, evaluated after 13 days, read-out: percentage phytotoxicity AMARE

compound	pest or weed control at 250 g/ha (%)
CC#Cc1cc(Cl)c(C2C(=O)CCCC2=O)c(OC)c1	0
Cc1cc(C#CCl)ccc1C1C(=O)C(C)(C)OC(C)(C)C1=O	0
CC#Cc1cc(C)c(C2C(=O)CC(CCSC)CC2=O)c(C)c1 (centres unmarked)	20
CC#Cc1cc(Cl)c(C2C(=O)C3CCC(C3)C2=O)c(OCC(F)(F)F)c1 (centres unmarked)	0
CC#Cc1ccc(C2C(=O)C3CCC(C3)C2=O)c(Cl)c1 (centres unmarked)	30
CC#Cc1cc(C)c(C2=C(OS(C)(=O)=O)CC(CC3CCOCC3)CC2=O)c(C)c1 (centres unmarked)	0
CC#Cc1cc(Cl)c(C2=C(OC(=O)SCC)C3CCC(C3)C2=O)c(OCC(F)(F)F)c1 (centres unmarked)	20
CC#Cc1ccc(C2C(=O)C(C)(C)OC(C)(C)C2=O)c(C)c1	10
CC#Cc1cc(Cl)c(C2C(=O)CC(CCSC)CC2=O)c(OC)c1 (centres unmarked)	20
CC#Cc1cc(C)c(C2C(=O)C3CCC(C3)C2=O)c(OC)c1 (centres unmarked)	50
Cc1cc(C#CCl)cc(C)c1C1C(=O)CC(CC2CCOCC2)CC1=O (centres unmarked)	40

// provenance: patent US9615577B2
